- assay-remarks: amyloid nucleation score (Sup35N fusion, yeast selection) (log enrichment); library NNK1; higher = more nucleation; inactive = no reads after selection;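 further: zero at mode of non-aggregating sequences after 7 days selection at 30°C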
Kind request: treat 0.04 as inclusive, so amyloid nucleation score at 0.04 or higher is fulfilled, anything lower is not fulfilled.

| substance | qualitative-label |
| --- | --- |
| LNSNPDCKTLFIHAWW | fulfilled |
| YCIGYGKICSYMRIVSSGLQ | fulfilled |
| RFGWISMYSCSRWHCMRNLY | fulfilled |
| KLVTAPISKSLF | fulfilled |
| MGQGLCPRSYMFLVCELIVF | fulfilled |
| CLDVFASISMRHFYFVFMCY | fulfilled |
| SCLNNKSPSLI | not fulfilled |
| DIRLIPCMSMVC | not fulfilled |
| LWVRSKFRSC | not fulfilled |
| LPGMVSL | fulfilled |
| YCTTAIGSKSLVDIWHAGCS | not fulfilled |
| HRRFLAPME | fulfilled |
| DIHNRDCVLYDRLDRHVYMK | not fulfilled |
| PMTPTCPLTNASTCPSTDRR | not fulfilled |
| FIWSLVGAQAQSTNRVHHLS | fulfilled |
| RHLLSSYRGFLLEQVSASNS | fulfilled |
| TYWQVARTSPSF | fulfilled |
| LWYCYYSVVFILSGALSHCV | not fulfilled |
| LTFNAMMMMIMLIMSAYIVS | fulfilled |
| VVQGVTCSLIMYSTRNCLFR | not fulfilled |
| AHIISIKYLGSIFNKRRRFA | fulfilled |
| ITLRVLFFRGKVLFTSGIQE | fulfilled |
| SPLMRFFSTDSGARIFLNMS | not fulfilled |
| NPGAYKYHSLSYTSRGGMFV | fulfilled |
| WIFIGTIPILLIGDRRSANV | fulfilled |
| GCYWIMAMGQILRRLEDAAG | fulfilled |
| VMSKSNPIAV | fulfilled |
| RSIMWNLFHDF | fulfilled |
| WLLREIERMDLGDWQLELNI | not fulfilled |
| PSPQWYGDDNVTSRWRLLAV | fulfilled |
| AILVGMFYAKTVGGQYRVHG | fulfilled |
| WRSSHINLGGIFRLSHTIYC | not fulfilled |
| THSSGINVTPPDVCSLITLT | not fulfilled |
| YLCRLDLTTDRKSTGLLCGC | not fulfilled |
| YFSSYFV | fulfilled |
| SYQSDDLWQETKPALSPLLE | fulfilled |
| SFFDLSEA | fulfilled |
| LYCSNLILVWLFCRSDISVR | fulfilled |
| CRFMSVICHTLFWTPLTFYY | fulfilled |
| FLFACFMRVAL | fulfilled |
| MSSHVTHAS | fulfilled |
| FQGRNYECIFVDFLRSQKGV | fulfilled |
| AFSSLTC | not fulfilled |
| SKSSRTFLVFSLVWVYNLLM | fulfilled |
| MYASRNNFNSFTGYRYSSVS | not fulfilled |
| RFFPLVLGSLKYM | fulfilled |
| ARYYIVREGSEKCDLLTGRG | not fulfilled |
| SSIALYFGWLGSIR | fulfilled |
| MPTRKTMDGYASIEF | not fulfilled |
| QKRRKLARLASRYFPS | fulfilled |
| FFLTDITTLHYQSRNRLFLT | not fulfilled |
| VECVSVQRFGAQCLSCYPSW | not fulfilled |
| WSCLSSLRDLGNGGYMM | fulfilled |
| TLCINWKPFP | fulfilled |
| SAKGIME | fulfilled |
| CLSSALLHLFRRNRIISVVT | fulfilled |
| NKIGRGVVCSRLWTCCSCFM | fulfilled |
| GKKAYALGMSYLESCL | fulfilled |
| PYKIEWLSRTHTAGSYSLQP | not fulfilled |
| PNIFCLQRSPNRP | not fulfilled |
| MCLAMSIFDKTENK | not fulfilled |
| WRILYRC | fulfilled |
| VMVRTCACFIR | fulfilled |
| VFYVFWYFRLCI | not fulfilled |
| IGGRGVLKSVSTLTCVLWTW | fulfilled |
| IRSYHLVFVGM | fulfilled |
| YWRKLQYRMAGN | fulfilled |
| IRSVGRSLRFMYS | fulfilled |
| VMAPERST | not fulfilled |
| YYASVTYFILYSHRIELVVR | fulfilled |
| RHIVFDRPSISFWLKSRKRR | fulfilled |

Origin of measurements: the supplement of paper PMC12042874
